# Lookup of reported Percent Effect keyed by entry
Target: Tyrosyl-tRNA synthetase, putative (Trypanosoma cruzi (strain CL Brener)) (UniProt Q4DSP6)
Sequence (Q4DSP6 as listed by the source): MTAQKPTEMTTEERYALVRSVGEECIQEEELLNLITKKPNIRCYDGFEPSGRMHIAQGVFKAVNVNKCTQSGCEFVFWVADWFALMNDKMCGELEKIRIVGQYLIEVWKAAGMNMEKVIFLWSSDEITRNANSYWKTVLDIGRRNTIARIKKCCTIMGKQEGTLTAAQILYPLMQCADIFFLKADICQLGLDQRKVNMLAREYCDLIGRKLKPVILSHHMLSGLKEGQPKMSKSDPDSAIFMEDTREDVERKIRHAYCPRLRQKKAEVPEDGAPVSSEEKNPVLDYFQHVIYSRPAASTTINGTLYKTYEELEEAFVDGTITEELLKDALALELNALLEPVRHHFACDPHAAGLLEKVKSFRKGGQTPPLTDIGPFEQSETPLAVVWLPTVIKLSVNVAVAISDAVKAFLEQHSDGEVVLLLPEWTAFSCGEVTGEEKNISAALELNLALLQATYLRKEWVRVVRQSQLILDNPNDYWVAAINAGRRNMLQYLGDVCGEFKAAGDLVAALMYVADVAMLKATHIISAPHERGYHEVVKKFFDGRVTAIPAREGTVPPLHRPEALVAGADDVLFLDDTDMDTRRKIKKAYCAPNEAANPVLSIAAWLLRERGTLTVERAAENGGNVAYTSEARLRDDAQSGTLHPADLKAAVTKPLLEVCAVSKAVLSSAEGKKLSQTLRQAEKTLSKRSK
Assay: Trypanosoma cruzi tyrosyl tRNA synthetase (TcYRS) SOP
Type: functional
Set-up: scale not given: direction of the effect not stated beside the values
Conditions: 30 µM
Kindly answer with a numeric value in %, unit omitted.

The examples below pair each entry with its known result.
* COCCN1C[C@H]2[C@@H](C1)N(C(=O)c1cccs1)CC[C@H]2OC | 7.69
* Cc1nn(C)c(N(C)C)c1CNC(C)c1cccc(OC(C)C)c1 (stereo unspecified) | 18.8
* Cc1ccccc1CC(=O)N(C)C1CCCC1 | 7.69
* CCN(CC)C(=O)C(c1ccccc1)N1CCn2c(C)nnc2C1 (stereo unspecified) | 22.9
* COC(=O)COc1cccc(NS(=O)(=O)c2cc(C(=O)O)cs2)c1 | 20.5
* Cc1cnn(CC2CCCN2C(=O)c2cc(Cl)ccc2F)c1 (stereo unspecified) | -2.35
* Cc1cnn(CC2CCCN2CC(=O)Nc2cc(C(C)(C)C)no2)c1 (stereo unspecified) | 28.2
* CCc1nc(CN2CCN(C(=O)C3CCCCC3)CC2)cs1 | 20.5
* Cc1cc(CN(C)C(=O)c2ccc(C(F)(F)F)nc2)no1 | 5.13
* CN1CCN(CC2CC2)C(=O)c2cnc(N3CCCC3)nc21 | -10.3

In the following, a different compound is considered.
# input Name the reported Percent Effect value associated with the compound `c1cc(-c2nc(CN3CCn4c(nnc4C4CC4)C3)cs2)cs1`
# output 8.43

###

Quick list: Percent Effect per entry.
Molecular target: Chromo domain-containing protein 1 (Saccharomyces cerevisiae (strain ATCC 204508 / S288c) (Baker's yeast))
Assay: ScCHD-1 Enzyme Inhibition Assay; also: in the data most compounds retested in dose-response had high values
Type: functional
Parameters: scale not given: direction of the effect not stated beside the values
Conditions: 30 µM
Number only, in %; omit the unit.

Example cases with answers are listed next.
- CCS(=O)(=O)CCN1CCC(N(C)Cc2noc(C(C)C)n2)C1 (configuration not stated): -6.07
- CC(=O)NC1CCCN(C(=O)NCc2cccnc2-n2cccn2)C1 (configuration not stated): -8.06
- Cc1ccc(Oc2ccc(NC(=O)NCC3CCOC3)cn2)cc1C (configuration not stated): -8.82
- CN(C)CC1CN(Cc2coc(-c3ccccc3Cl)n2)CCO1 (configuration not stated): -10.4

Kindly review the next compound as well.
# input Looking for the measured Percent Effect of `O=C(c1ccnnc1)N1CCC2(CC1)CC(N1CCOCC1)C2` , can you help?
# output -8.83

###

System: Trypanosoma cruzi
Assay: Trypanosoma cruzi phosphomannomutase and mannose-1-phosphate guanylyltransferase assay
Format: functional
Parameters: scale not given: direction of the effect not stated beside the values
Conditions: 10 µM
readout_name: Percent Effect (%)
Output spec: scalar in %, unitless text.

• Cc1ccoc1-c1nnc(CN2CCCC(Cn3cncn3)C2)o1 (stereo not drawn) = 2.54

# input Would you mind telling me what Percent Effect value was observed for Cc1ccc(Cl)cc1N1CCC(CNC(=O)CC(F)(F)F)C1 (stereo not drawn) ?
# output -2.54

# input And then CC(C)NC(=O)C(c1ccccc1)N1CCn2c(nnc2C2CC2)C1 (stereo not drawn) , what is it?
# output 7.61

###

Property: Percent Effect; scope: individual compounds
Molecular target: AMP-activated protein kinase, AMPK (Homo sapiens) (UniProt P54646+O43741+P54619+Q9UGJ0+Q9Y478+Q13131+Q9UGI9)
Experiment: AMP-dependent Kinase enzyme assay. An in vitro enzyme assay that detects ADP turnover that is directly proportional to AMPK activity. This uses naive AMPK that is activated during the assay with MK-8722
Type: functional
Set-up: scale not given: direction of the effect not stated beside the values
Details: 30 µM
Number in %, nothing else.

- CC(C)Oc1ncccc1CNC(=O)NC(C)c1cccs1 (configuration not stated): -3.91
- CC(C)c1nnc2n1CCN(Cc1cc(Cl)c3c(c1)OCO3)C2: 8.76
- COCc1cc(N(C)Cc2cc(C(C)(C)C)n[nH]2)ncn1: -7.3

# input # query: Percent Effect of entry `Cc1cc(NC(=O)C2CCN(c3nnc(C)c(C)c3C#N)CC2)no1`
# output -48.4

# input Again, but for `CCc1ccc(-c2noc(Cn3nc(C(N)=O)ccc3=O)n2)cc1`
# output -8.7

# input Now this one: `CC(=O)Nc1ccc(-c2ccccc2NC(=O)CN)cc1`
# output 17.8

# input Queued: Cc1noc(CCCc2nc(C3CCOC3)no2)n1 (configuration not stated)
# output 10.8

# input Again, but for `CCCOc1ccccc1CCCNc1ncnc2oc(C)nc12`
# output 2.11

# input // same read-out, input: COCCNc1ccc(CC2CCCN(c3ncccn3)C2)nn1 (configuration not stated)
# output 6.13

###

Molecular target: AMP-activated protein kinase, AMPK (Homo sapiens) (UniProt P54646+O43741+P54619+Q9UGJ0+Q9Y478+Q13131+Q9UGI9)
Assay: AMP-dependent Kinase enzyme assay. An in vitro enzyme assay that detects ADP turnover that is directly proportional to AMPK activity. This uses naive AMPK that is activated during the assay with MK-8722
Format: functional
Set-up: scale not given: direction of the effect not stated beside the values
Conditions: 30 µM
Percent Effect for assorted compounds
Just the number in %, nothing appended.

# input Value lookup for Percent Effect; key = `CCCS(=O)(=O)NCc1ncc(C)c(OC)c1C`
# output 6.9

###

Target: Proteasome subunit beta (Trypanosoma cruzi)
Assay: Trypanosoma cruzi proteasome chymotrypsin-like activity (TcProtChymo) assay. Also: in the data most compounds retested in dose-response had high values.
Assay type: functional
Design: scale not given: direction of the effect not stated beside the values
Details: 9.37 µM
Note to self: Percent Effect under 10% means class 1, ties and anything higher get class 0.

- c1ccc(-c2nc(CN3CCc4c(ncn4C4CC4)C3)cs2)cc1: class 0

# input Lab note: Percent Effect threshold 10%. Does this compound come in strictly under it? CN(Cc1ccccc1)CC(O)Cn1cnc2c(cnn2C)c1=O (configuration not stated)
# output class 0

# input Another compound to check: `Cn1nc2c(cc1=O)CN(Cc1nnc(-c3ccco3)o1)CC2`
# output class 0

# input Do the same for `Cc1cccc(N2CCN(C(=O)Nc3cnn(CC(N)=O)c3)CC2)c1` please
# output class 1

# input Entry `Cc1ncc(-c2ccnc(N3CCN(C)CC3)n2)c(-c2cccnc2)n1` please
# output class 1

# input What do you have for `Cc1noc(C(C)C)c1C(=O)NCCN1CCCCCC1=O` ?
# output class 0

# input Please do the same for CCN(CC)C(=O)C(c1ccccc1)N1CCn2c(C)nnc2C1 (configuration not stated) as well.
# output class 1

# input Subsequent entry: CCOc1ncccc1C(=O)N1CCCC(c2nccn2CCOC)C1 (configuration not stated)
# output class 0

# input Same read-out for `Cc1ccoc1-c1nnc(CN2CCn3c(nnc3C3CC3)C2)o1` ?
# output class 1

# input One more compound: Cc1cncc(C2CCCN(C(=O)c3c[nH]c(=O)[nH]c3=O)C2)n1 (configuration not stated)
# output class 1

# input One more compound: `CNC(=O)[C@@H]1C[C@H]2CN(Cc3nccs3)C[C@H]2N1C`
# output class 0

# input # repeat for CC(=O)N1N=C(c2ccccc2)OC1C(=O)NCCc1cccc(Cl)c1 (configuration not stated)
# output class 1

# input Please answer likewise for Cc1cc(NC(=O)C(C)N2CCCN(c3nccs3)CC2)on1 (configuration not stated)
# output class 1

###

Molecular target: Protein translocase subunit SecA (Escherichia coli (strain K12)) (UniProt P10408)
Sequence (P10408 whole entry): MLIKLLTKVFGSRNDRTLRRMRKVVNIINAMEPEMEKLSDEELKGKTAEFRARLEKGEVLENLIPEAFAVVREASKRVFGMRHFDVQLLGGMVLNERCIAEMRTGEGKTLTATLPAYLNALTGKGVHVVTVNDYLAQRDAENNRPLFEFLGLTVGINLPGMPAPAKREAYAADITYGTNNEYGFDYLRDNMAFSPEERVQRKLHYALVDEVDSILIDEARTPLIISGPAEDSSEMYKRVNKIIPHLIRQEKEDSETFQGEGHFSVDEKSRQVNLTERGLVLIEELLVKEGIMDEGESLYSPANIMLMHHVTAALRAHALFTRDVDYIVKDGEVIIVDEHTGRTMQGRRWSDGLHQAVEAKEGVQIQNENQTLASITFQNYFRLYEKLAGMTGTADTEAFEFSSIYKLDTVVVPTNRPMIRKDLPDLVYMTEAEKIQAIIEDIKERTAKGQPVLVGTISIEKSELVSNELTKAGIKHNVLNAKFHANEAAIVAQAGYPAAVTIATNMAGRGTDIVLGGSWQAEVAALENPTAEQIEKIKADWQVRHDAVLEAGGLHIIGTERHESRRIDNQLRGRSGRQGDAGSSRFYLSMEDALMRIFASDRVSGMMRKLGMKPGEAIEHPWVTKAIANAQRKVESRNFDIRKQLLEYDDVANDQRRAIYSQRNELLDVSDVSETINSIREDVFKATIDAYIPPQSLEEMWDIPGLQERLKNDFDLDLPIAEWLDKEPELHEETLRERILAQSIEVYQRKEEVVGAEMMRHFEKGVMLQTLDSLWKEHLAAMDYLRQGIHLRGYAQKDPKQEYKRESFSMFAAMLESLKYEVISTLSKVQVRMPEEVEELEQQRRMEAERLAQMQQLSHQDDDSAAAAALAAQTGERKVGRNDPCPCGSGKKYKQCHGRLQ
Experiment: Assay to Identify E. coli SecA ATPase Inhibitors
Assay type: functional
Parameters: scale not given: direction of the effect not stated beside the values
Settings: 30 µM
Measured potencies and affinities stand elsewhere.
readout_name: Percent Effect (%)
Reply numerically in %, unit not repeated.

Here is how some compounds turned out for Percent Effect.
- Cc1ncnc(NCc2cc3n(n2)CCCN(S(C)(=O)=O)C3)c1C: -4.52
- CN(C)CCCn1ccnc1C1CCCN(c2cc(N)ncn2)C1 (configuration not stated): -10.5

# input Tell me the measured Percent Effect of COCC(C)NC(=O)c1cc(Br)c2c(c1)OCCO2 (configuration not stated) , please.
# output -0.916

# input Lookup `O=C1CCC2(CCN(Cc3ccc(F)cc3)CC2)N1Cc1ccccc1`
# output -4.42

# input Note, next up: `CC(=O)N1CCC(c2cc(C(F)(F)F)n3ccnc3n2)CC1`
# output -2.29

###

Target: Tyrosyl-tRNA synthetase, putative (Trypanosoma cruzi (strain CL Brener))
Test: Trypanosoma cruzi tyrosyl tRNA synthetase (TcYRS) SOP
Format: functional
Design: scale not given: direction of the effect not stated beside the values
Settings: 30 µM
Listed here are molecules together with their documented Percent Effect.
State just the number; it will be interpreted in %.

* OC(COCc1ccccc1F)CN1CCc2c(ncn2C2CC2)C1 (configuration not stated) | 0
* CCOCC1CC2(CCN(C(=O)c3ccccn3)CC2)CO1 (configuration not stated) | 2.56
* O=c1cccnn1CC1CN(Cc2ccsc2)Cc2nccn2C1 (configuration not stated) | 15.4
* Cc1[nH]nc(CCC(=O)N2CCCC(OCc3cccnc3)C2)c1C (configuration not stated) | 17.1
* CC(C)c1cc(N2CCC(N)CC2)n2nccc2n1 | 17.1

# input Consider the molecule shown here: `COc1ccc(CC(=O)N2CCc3nnc(N(C)C)cc3C2)cc1F` What is its recorded Percent Effect?
# output 6.02

# input Same lookup for CN1CCC(c2ncc3c(n2)CCN(C(=O)CC2C=CCC2)C3)CC1 (configuration not stated) , please.
# output 22.5

# input What do you get for `Cc1ncnc(NCc2cc3n(n2)CCCN(S(C)(=O)=O)C3)c1C` ?
# output 14.6

# input # iterate: `O=C1NCCN(CC2CC2)C12CCN(Cc1ccco1)CC2`
# output -2.56

# input Similarly, `COc1ccc(F)cc1C(=O)N(C)Cc1cc(C)on1` ?
# output 13.2

# input Next up: Cc1cnn(CC2CCCCN2C(=O)c2cc(Cl)c[nH]2)c1 (configuration not stated)
# output 23.5

# input One more molecule: COc1ccc(F)cc1C(C)NC(=O)Cn1ccc(=O)n(C)c1=O (configuration not stated)
# output 21.2

FYI, the data here is from ChEMBL document CHEMBL3988442.
